# System: mice
# Method Notes: SmartCube in vivo neuropharmacological behavioral assay
# Test Settings: SmartCube, i.p. 15 min before test, at the MED
Counter-ions that a name gives are not always drawn.
Readout Label: AG: analgesic, percent probability

Illustrative cases are given below, each with its answer.
{"columns": ["Molecule", "Target System", "Readout Label", "Value Observed"],
 "data": [
  ["c1ccc2c(c1)C1CCC2N1 [Compound 41, hydrochloride]", "mice", "AG: analgesic, percent probability", "++ (5% ≤ X < 25%)"],
  ["CC/C=C/CN1C2CCC1c1ccccc12 [Compound 10, hydrochloride]", "mice", "AG: analgesic, percent probability", "+ (LOQ ≤ X < 5%)"],
  ["Cc1ccc2c(c1)C1CCC2N1C(C)C (stereo not drawn) [Compound 21, hydrochloride]", "mice", "AG: analgesic, percent probability", "+ (LOQ ≤ X < 5%)"],
  ["Fc1cc2c(cc1F)C1CCC2N1 [Compound 7, hydrochloride]", "mice", "AG: analgesic, percent probability", "++ (5% ≤ X < 25%)"],
  ["CC(C)N1C2CCC1c1c(F)ccc(F)c12 [Compound 34, hydrochloride]", "mice", "AG: analgesic, percent probability", "+ (LOQ ≤ X < 5%)"]
]}

Enquiry: Lab note: record AG: analgesic, percent probability of CC(C)C(C)N1C2CCC1c1ccccc12 (stereo not drawn) [Compound 47, hydrochloride] tested on mice.
Return: + (LOQ ≤ X < 5%)

Enquiry: Lab note: record AG: analgesic, percent probability of CC1C2NC(c3ccccc32)C1C (stereo not drawn) [Compound 48, hydrochloride] tested on mice.
Return: + (LOQ ≤ X < 5%)

Enquiry: Lab note: record AG: analgesic, percent probability of CCC(C)N1C2CCC1c1ccccc12 (stereo not drawn) [Compound 44, hydrochloride] tested on mice.
Return: + (LOQ ≤ X < 5%)

Enquiry: Lab note: record AG: analgesic, percent probability of CC(C)N1C2C=CC1c1c(Cl)cccc12 (stereo not drawn) [Compound 12, hydrochloride] tested on mice.
Return: + (LOQ ≤ X < 5%)

* * *

# Test system: mice
# Method Notes: SmartCube in vivo neuropharmacological behavioral assay
# Test Settings: SmartCube, i.p. 15 min before test, at the MED
Where a name gives a salt, the structure may show the parent alone.
Readout Label: UN: uncharacterized CNS activity, percent probability

Illustrative cases are given below, each with its answer.
{"columns": ["Compound", "Value Observed"],
 "data": [
  ["C1=CC2NC1c1ccccc12 [Compound 52, hydrochloride]", "+ (LOQ ≤ X < 5%)"],
  ["CC1CC2NC1c1ccccc12 (centres unmarked) [Compound 50, hydrochloride]", "+++ (25% ≤ X < 50%)"],
  ["C1=CC2c3ccccc3C1N2C1CCCC1 [Compound 54, hydrochloride]", "++ (5% ≤ X < 25%)"],
  ["Fc1cc2c(cc1F)C1CCC2N1 [Compound 7, hydrochloride]", "+ (LOQ ≤ X < 5%)"],
  ["CCC(C)N1C2C=CC1c1ccccc12 (centres unmarked) [Compound 55, hydrochloride]", "+++ (25% ≤ X < 50%)"],
  ["c1ccc2c(c1)C1CCC2N1 [Compound 41, hydrochloride]", "++ (5% ≤ X < 25%)"],
  ["CC1C2NC(c3ccccc32)C1C (centres unmarked) [Compound 48, hydrochloride]", "+ (LOQ ≤ X < 5%)"],
  ["CC1=CC2NC1c1ccccc12 (centres unmarked) [Compound 61, hydrochloride]", "+ (LOQ ≤ X < 5%)"],
  ["CC(C)N1C2CCC1c1c(F)ccc(F)c12 [Compound 34, hydrochloride]", "+ (LOQ ≤ X < 5%)"]
]}

Enquiry: Return reported UN: uncharacterized CNS activity, percent probability. Input compound: COCC(C)N1C2C=CC1c1ccccc12 (centres unmarked) [Compound 57, hydrochloride]
Return: + (LOQ ≤ X < 5%)
